The measured values listed here are drawn from paper PMC5700166.

Could you please report measured binding signal for the items listed next?
Biological target: GST-Co-NF-kB (Capsaspora owczarzaki, UniProt F1ARL5 200-546)
Sequence: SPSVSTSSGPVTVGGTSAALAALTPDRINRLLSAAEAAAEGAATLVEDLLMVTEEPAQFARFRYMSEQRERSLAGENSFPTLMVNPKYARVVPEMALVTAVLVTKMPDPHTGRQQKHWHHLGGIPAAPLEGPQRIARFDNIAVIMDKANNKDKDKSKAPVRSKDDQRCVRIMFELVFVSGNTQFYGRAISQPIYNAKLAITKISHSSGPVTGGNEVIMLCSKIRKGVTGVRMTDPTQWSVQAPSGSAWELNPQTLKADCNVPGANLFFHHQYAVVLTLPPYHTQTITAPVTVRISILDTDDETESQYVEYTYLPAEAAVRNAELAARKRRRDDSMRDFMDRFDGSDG
Assay: protein-binding microarray (PBM); PBM: ~300 nM protein, 6 mM HEPES pH 7.8, 80 mM KCl, 0.5 mM EDTA, 0.5 mM EGTA, 6% glycerol, 35 ng/ul poly-dIdC, 1% milk, 1 h, room temperature; high values mean tight binding
Conditions: dsDNA, one strand shown
One number for each entry, in z-score.

Here is how some sequences turned out for binding signal.
• CCGATTAACATCAAGAGATTCCCTGATGTTAATCGGGTCTTGATTCGCTTGACGCTGCTG = 2.46
• CCGATTAACATCAGTAGGTGAAGTGATGTTAATCGGGTCTTGATTCGCTTGACGCTGCTG = 1.02

Could you tell me binding signal for each of these sequences? They are listed below.
1. CCGATTAACATCACAATATCCCCTGATGTTAATCGGGTCTTGATTCGCTTGACGCTGCTG
2. CCGATTAACATCAAGTATTCCCATGATGTTAATCGGGTCTTGATTCGCTTGACGCTGCTG
3. CCGATTAACATCACGGTTTTCCCTGATGTTAATCGGGTCTTGATTCGCTTGACGCTGCTG
4. CCGATTAACATCAAGTATCCCCCTGATGTTAATCGGGTCTTGATTCGCTTGACGCTGCTG
5. CCGATTAACATCAAAGCATTCCCTGATGTTAATCGGGTCTTGATTCGCTTGACGCTGCTG
6. CCGATTAACATCAGGGGGTGAAATGATGTTAATCGGGTCTTGATTCGCTTGACGCTGCTG

Output:
1: 4.15; 2: 3.57; 3: 4.63; 4: 7.27; 5: 2.52; 6: 6.99

Task: Reported binding signal, sequence CCGATTAACATCAAGGTATTCCCTGATGTTAATCGGGTCTTGATTCGCTTGACGCTGCTG : ____
Output: 3.21

* * *

target: GST-Hu-p50 (Homo sapiens, UniProt P19838 7-356); test: protein-binding microarray (PBM); PBM: ~300 nM protein, 6 mM HEPES pH 7.8, 80 mM KCl, 0.5 mM EDTA, 0.5 mM EGTA, 6% glycerol, 35 ng/ul poly-dIdC, 1% milk, 1 h, room temperature; Ap Aiptasia and Nv Nematostella (sea anemones) / Co Capsaspora / Aq Amphimedon (sponge) / Dm Drosophila / Hu human; RHD is the Rel homology domain; high values mean tight binding; conditions: dsDNA, one strand shown
Sequence (P19838 7-356): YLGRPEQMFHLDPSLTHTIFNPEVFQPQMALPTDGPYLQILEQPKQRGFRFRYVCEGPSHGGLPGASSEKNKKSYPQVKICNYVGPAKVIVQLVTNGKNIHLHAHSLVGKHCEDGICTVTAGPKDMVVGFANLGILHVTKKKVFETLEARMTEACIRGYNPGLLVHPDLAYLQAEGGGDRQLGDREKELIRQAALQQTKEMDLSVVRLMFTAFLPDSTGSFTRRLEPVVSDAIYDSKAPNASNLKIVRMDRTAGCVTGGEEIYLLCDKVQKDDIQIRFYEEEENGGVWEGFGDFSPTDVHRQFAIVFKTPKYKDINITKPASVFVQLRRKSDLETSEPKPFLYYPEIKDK
measured quantity: binding signal (z-score)
Give bare numbers, in z-score.

Here is how some sequences turned out for binding signal.
- CCGATTAACATCAGGGAAACATATGATGTTAATCGGGTCTTGATTCGCTTGACGCTGCTG: 1.78
- CCGATTAACATCAGAATTCCCGATGATGTTAATCGGGTCTTGATTCGCTTGACGCTGCTG: 3.21
- CCGATTAACATCAGGGGGGTGTATGATGTTAATCGGGTCTTGATTCGCTTGACGCTGCTG: 3.91

Could you tell me binding signal for each of these sequences? They are listed below.
1. CCGATTAACATCAGTATGGGAAATGATGTTAATCGGGTCTTGATTCGCTTGACGCTGCTG
2. CCGATTAACATCAGGGGATATACTGATGTTAATCGGGTCTTGATTCGCTTGACGCTGCTG
3. CCGATTAACATCAGAGTATCCCCTGATGTTAATCGGGTCTTGATTCGCTTGACGCTGCTG

Output:
1: 1.28; 2: 4.04; 3: 4.2

Could you tell me binding signal for each of these sequences? They are listed below.
1. CCGATTAACATCAGGCAAGCCCCTGATGTTAATCGGGTCTTGATTCGCTTGACGCTGCTG
2. CCGATTAACATCAAGACTTTCCCTGATGTTAATCGGGTCTTGATTCGCTTGACGCTGCTG
3. CCGATTAACATCAGAAAGTCCCCTGATGTTAATCGGGTCTTGATTCGCTTGACGCTGCTG

Output:
3.36
4.12
7.42
